Experiment: chemical genetic growth profiling, strain panel (AID 1159580);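 further: tested at 20 µM; growth read once vehicle control cultures reached saturation at 30 °C; 1 = growth at the plate median or of vehicle wells; lower values mean less growth of the strain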
Details: S. cerevisiae deletion strains, growth OD, locus YGL248W, strain PDE1, active compounds read low
About 2,000 (36%) of roughly 5,500 compounds were called active. Another 18% or so got no clear call; they are omitted. The list shows a part of the results.
Outcome Measure: normalized growth
Give bare numbers.

Answered examples (3):
[[record]]
compound = "COC(=O)[C@@H]1C(O)CC[C@H]2CN3CCc4c([nH]c5ccccc45)[C@@H]3C[C@@H]21 (stereo not given in full)"
measurement = 0.982

[[record]]
compound = "CC(=O)O[C@]1(C(C)=O)CCC2C3C[C@H](C)C4=CC(=O)CC[C@]4(C)C3CC[C@@]21C (stereo not given in full)"
measurement = 0.992

[[record]]
compound = "COC(=O)C1[C@H]2C[C@H]3c4[nH]c5ccccc5c4CCN3C[C@@H]2CC[C@@H]1O (stereo not given in full)"
measurement = 1.01


Below are some compounds; for each one, tell me its normalized growth.
1. CC(=O)O[C@]1(C(C)=O)CCC2C3C=C(C)C4=CC(=O)CCC4(C)C3CCC21C (stereo not given in full)
2. O=C(O)C1C(O)CCC2CN3CCc4c([nH]c5ccccc45)C3CC21 (stereo not given)

1: 0.992; 2: 1.01

====

Experiment: chemical genetic growth profiling, strain panel (AID 1159580)
Details: S. cerevisiae deletion strains, growth OD, locus YOR001W, strain rrp6, active compounds read low
Among all 5,500 compounds or so, about 2,000 (36%) were called active. Inconclusive results (about 18%) are left out. This is one part of the list.
Exercise: for every item that follows, state its recorded normalized growth.
Numbers only.

These solved cases illustrate the format of a correct answer.
[[record]]
compound = "CCC1(C)CC(=O)NC1=O (centres undefined)"
measurement = 0.98

[[record]]
compound = "CC1(C)S[C@@H]2[C@H](NC(=O)[C@H](NC(=O)N3CCNC3=O)c3ccccc3)C(=O)N2C1C(=O)O (some centres undefined)"
measurement = 0.981

[[record]]
compound = "CC(C)(C)CC(C)(C)c1ccc(OCCOCC[N+](C)(C)Cc2ccccc2)cc1"
measurement = 0.0755


Each compound below has a reported value. Please supply its normalized growth.
1. CCCCCC(C)N (centres undefined)
2. CC(C)(CO)C(O)C(=O)NCCCO (centres undefined)
3. NC(N)=Nc1nc(CSCCC(N)=NS(N)(=O)=O)cs1
4. CC(C)(N=NC(C)(C)C(=N)N)C(=N)N
5. COC(=O)COc1cc(Cl)c(Cl)cc1Cl

[1, 1, 0.972, 1.02, 1.01]

Batch of 4 compounds: report normalized growth for each.
1. CC(=O)O[C@@](C)(CCC=C(C)C)C1CC=C(C)CC1 (some centres undefined)
2. CN1C2CC3C[C@H]1C(O3)C2O (some centres undefined)
3. C1CCc2nnnn2CC1
4. N#Cc1c(Cl)c(Cl)c(Cl)c(C#N)c1Cl

1: 0.973; 2: 0.987; 3: 1; 4: 0.0917

====

Assay: chemical genetic growth profiling, strain panel (AID 1159580)
Conditions: S. cerevisiae deletion strains, growth OD, locus YBR171W, strain sec66, active compounds read low
About 2,000 (36%) of roughly 5,500 compounds were called active. Not shown: some 18% with an inconclusive outcome. Some of the results follow.
Outcome Measure: normalized growth
Numbers only.

Some solved cases for reference:
[[record]]
molecule = "O=[N+]([O-])O[C@H]1CO[C@H]2[C@@H]1OC[C@H]2O[N+](=O)[O-]"
measurement = 0.993

[[record]]
molecule = "O=C1CC(c2ccc(O)c(O)c2)Oc2cc(O)cc(O)c21 (stereo not given)"
measurement = 0.993

[[record]]
molecule = "C[C@@H]1O[C@@H](O[C@H]2[C@@H](Oc3cc(O)c4c(c3)O[C@H](c3ccc(O)cc3)CC4=O)O[C@H](CO)[C@@H](O)[C@@H]2O)[C@H](O)[C@H](O)[C@H]1O"
measurement = 0.977

[[record]]
molecule = "CC(=O)O[C@@](C)(CCC=C(C)C)C1CC=C(C)CC1 (stereo not given in full)"
measurement = 0.981

[[record]]
molecule = "COC(=O)C1[C@H]2C[C@H]3c4[nH]c5ccccc5c4CCN3C[C@@H]2CC[C@@H]1O (stereo not given in full)"
measurement = 0.96

[[record]]
molecule = "COC(=O)[C@@H]1C(O)CC[C@H]2CN3CCc4c([nH]c5ccccc45)[C@@H]3C[C@@H]21 (stereo not given in full)"
measurement = 1.02

[[record]]
molecule = "C1CCc2nnnn2CC1"
measurement = 1.01

[[record]]
molecule = "NC(N)=NOCC[C@H](N)C(=O)O"
measurement = 1.02


Count: 2. Required value per item: normalized growth.
1. COc1ccc(C2CC(=O)c3ccc(OC)cc3O2)cc1 (stereo not given)
2. O=C1C[C@@H](c2ccc(O)cc2)Oc2cc(O)cc(O)c21

1: 0.936; 2: 0.989

====

Test: chemical genetic growth profiling, strain panel (AID 1159580)
Details: S. cerevisiae deletion strains, growth OD, locus YJL187C, strain SWE1, active compounds read low
Among all 5,500 compounds or so, about 2,000 (36%) were called active. Not shown: some 18% with an inconclusive outcome. The list shows a part of the results.
Exercise: state measured normalized growth for each of the compounds provided.

[[record]]
compound = "C[N+](C)(C)CCOP(=O)([O-])OP(=O)(O)OC[C@H]1OC(n2ccc(N)nc2=O)[C@H](O)[C@@H]1O (stereo not given in full)"
outcome_measure = "normalized growth"
measurement = "0.993 (inactive)"


Parameters: items (list). Returns: normalized growth for each item.
1. NC/C=C/C(=O)O
2. CC(C)(C)CC(C)(C)c1ccc(OCCOCC[N+](C)(C)Cc2ccccc2)cc1
3. Cc1cc(C(C)(C)CC(C)(C)C)ccc1OCCOCC[N+](C)(C)Cc1ccccc1
4. O=C(Nc1ccccc1C(=O)Nc1ccc(Br)cc1)c1ccccc1

1.02 (inactive)
0.0616 (active)
0.0563 (active)
1.01 (inactive)

====

Assay: chemical genetic growth profiling, strain panel (AID 1159580);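 further: tested at 20 µM; growth read once vehicle control cultures reached saturation at 30 °C; 1 = growth at the plate median or of vehicle wells; lower values mean less growth of the strain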
Settings: S. cerevisiae deletion strains, growth OD, locus YJL187C, strain SWE1, active compounds read low
Screen size: about 5,500 compounds; about 2,000 (36%) were called active. About 18% were inconclusive and are not listed. This is one part of the list.
Mark YES only when normalized growth stays strictly below 1. Values equal to the cut-off are NO.

Would you please look over these solved cases?
[[record]]
compound = "CN1C2CC3C[C@H]1C(O3)C2O (some centres not stated)"
label_class = "YES"

[[record]]
compound = "C=CC1=C(C(=O)O)N2C(=O)[C@@H](NC(=O)/C(=N/O)c3csc(N)n3)[C@H]2SC1"
label_class = "NO"

[[record]]
compound = "C[CH2][Hg][S]c1ccccc1C(=O)O"
label_class = "YES"


From here, focus on the item given below.
I wonder whether C=CCc1ccc2c(c1)OCO2 has normalized growth below 1. Can you tell?
NO

====

Assay: chemical genetic growth profiling, strain panel (AID 1159580);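 further: tested at 20 µM; growth read once vehicle control cultures reached saturation at 30 °C; 1 = growth at the plate median or of vehicle wells; lower values mean less growth of the strain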
Conditions: S. cerevisiae deletion strains, growth OD, locus YML032C, strain rad52, active compounds read low
Out of some 5,500 compounds screened, about 2,000 (36%) were called active. Another 18% or so got no clear call; they are omitted. This is one part of the list.
Outcome Measure: normalized growth
Numbers only.

Some solved entries appear below for comparison.
[[record]]
compound = "COc1cc(OC)c2c(c1)O[C@H](c1ccc(OC)c(OC)c1)[C@@H](O)C2"
measurement = 1.01

[[record]]
compound = "COc1ccc2c(c1)OC[C@@H](Cc1ccc(OC)c(OC)c1)[C@H]2O"
measurement = 0.975


For each of the compounds below, note its normalized growth.
1. COC(=O)[C@@H]1C(O)CC[C@H]2CN3CCc4c([nH]c5ccccc45)[C@@H]3C[C@@H]21 (some centres not stated)
2. CCOC(=O)/C=C(\C)OP(=O)(OC)OC
3. COc1ccc(CC2c3cc(OC)c(OC)cc3CCN2C)cc1OC (configuration not stated)
4. C1CCc2nnnn2CC1
5. NC(N)=NOCC[C@H](N)C(=O)O

0.971
1
1
1.03
0.976

====

Test: chemical genetic growth profiling, strain panel (AID 1159580);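 further: tested at 20 µM; growth read once vehicle control cultures reached saturation at 30 °C; 1 = growth at the plate median or of vehicle wells; lower values mean less growth of the strain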
Details: S. cerevisiae deletion strains, growth OD, locus YJR066W, strain TOR1, active compounds read low
In all, about 5,500 compounds went through this assay and about 2,000 (36%) were called active. About 18% were inconclusive and are not listed. Some of the results follow.
Outcome Measure: normalized growth
Answers are plain numbers.

As a guide, the following entries are already answered.
[[record]]
molecule = "C[C@H]1CC2C3CCC4=CC(=O)C=C[C@]4(C)[C@@]3(F)[C@@H](O)C[C@]2(C)[C@@]1(O)C(=O)COP(=O)(O)O (some centres not stated)"
measurement = 0.971

[[record]]
molecule = "C=CCc1ccc2c(c1)OCO2"
measurement = 0.928

[[record]]
molecule = "c1ccc(CN(CC2=NCCN2)c2ccccc2)cc1"
measurement = 0.983

[[record]]
molecule = "C[N+](C)(C)CC(=O)[O-]"
measurement = 0.948

[[record]]
molecule = "c1ccc(CC2=NCCN2)cc1"
measurement = 0.935


Parameter requested: normalized growth. Apply to each item below.
1. COc1cc2c(cc1OC)C(=O)C(CC1CCN(Cc3ccccc3)CC1)C2 (configuration not stated)
2. C=CC1=C(C(=O)O)N2C(=O)[C@@H](NC(=O)/C(=N/O)c3csc(N)n3)[C@H]2SC1

[0.94, 0.95]
